molecular target: T1, recombinant human Siglec-8 extracellular domain (ECD) (human, UniProt Q9NYZ4 17-363); test: ELISA, coated Siglec-8 ECD
T1 construct: extracellular domain; also called Siglec-8 ECD; full Siglec-8 ECD
T1 sequence (Q9NYZ4 17-363): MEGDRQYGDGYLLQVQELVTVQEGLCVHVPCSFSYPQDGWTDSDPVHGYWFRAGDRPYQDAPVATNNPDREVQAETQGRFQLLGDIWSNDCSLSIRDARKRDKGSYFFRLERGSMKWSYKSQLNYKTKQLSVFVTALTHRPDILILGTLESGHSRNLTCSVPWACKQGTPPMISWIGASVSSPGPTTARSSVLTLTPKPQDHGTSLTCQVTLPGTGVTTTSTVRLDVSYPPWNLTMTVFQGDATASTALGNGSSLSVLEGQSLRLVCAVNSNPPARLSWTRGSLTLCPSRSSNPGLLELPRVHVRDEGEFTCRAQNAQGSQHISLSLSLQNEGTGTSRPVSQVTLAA
OUTCOME MEASURE: pEC50
FYI, pEC50 means -log10 of a concentration in mol per litre.

HBKG (antibody, human IgG1, V domains shown, human IgG1/kappa) VH: EVQLVESGGGLVQPGGSLRLSCAVSGFSLTIYGAHWVRQAPGKGLEWLGVIWAGGSTNYNSALMSRLSISKDNSKNTVYLQMNSLRAEDTAVYYCARDGSSPYYYSMEYWGQGTTVTVSS VL: EIVLTQSPATLSLSPGERATLSCSATSSVSYMHWYQQKPGQAPRLLIYSTSNLASGIPARFSGSGSGTDFTLTISSLEPEDFAVYYCQQRSSYPFTFGPGTKLDIK; 9.67

Consider the record given below.
Task: Given the binder HBKFmut (antibody, human IgG1, V domains shown, human IgG1/kappa) VH: EVQLVESGGGLVQPGGSLRLSCAVSGFSLTIYGAHWVRQAPGKGLEWLGVIWAGGSTNYNSALMSRLSISKDNSKNTVYLQMNSLRAEDTAVYYCARDGSSPYYYSMEYWGQGTTVTVSS VL: EIVLTQSPATLSLSPGERATLSCSATSSVSYMHWFQQKPGQAPRLLIYSTSNLASGIPARFSGSGSGTDYTLTISSLEPEDFAVYYCQQRSSYPYTFGPGTKLDIK , what is its reported pEC50?
Output: 10.32
